experiment: SPR (Biacore) Protein A mAb capture, Compound A injected; conditions: 37° C., binding to Compound A, apparent affinity, for rank ordering only, read-out: KD
QUANTITY KIND: Kd (nM)
All answers are understood in nM, so give the number only.

25D5-75592-0348-A04-mAb: human IgG1f/kappa mAb; VH SEQ ID NO: 61, VL SEQ ID NO: 89 (antibody, V domains shown) VH: EVQLVESGGGLIQPGGSLRLSCAASGFTVSSNAIAWVRQAPGKGLEWVAYIYPGGRTYYADSVKGRFTISRDNSKNTLYLQMNSLRAEDTAVYYCVTAGFGGGDYWGQGTLVTVSS VL: DIQMTQSPSSVSASVGDRVTITCRASQGISSNNQWYQQKPGKAPKLLIYYASSLQSGVPSRFSGSGSGTDFTLTISSLQPEDFATYYCQQGNEFPLTFGGGTKVEIK | 0.1
26D5-296-F03-mAb: human IgG1f/kappa mAb; VH SEQ ID NO: 70, VL SEQ ID NO: 88 (antibody, V domains shown) VH: EVQLVESGGGLIQPGGSLRLSCAASGFQVSSNYMSWVRQAPGKGLEWVSFIYSGGRTYYADSVKGRFTISRDNSKNTLYLQMNSLRAEDTAVYYCARAGFGGGDYWGQGTLVTVSS VL: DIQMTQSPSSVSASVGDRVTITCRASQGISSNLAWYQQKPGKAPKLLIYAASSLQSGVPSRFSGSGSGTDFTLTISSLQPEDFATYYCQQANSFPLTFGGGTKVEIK | 0.54
26D5-75746-0348-C07-mAb: human IgG1f/kappa mAb; VH SEQ ID NO: 57, VL SEQ ID NO: 92 (antibody, V domains shown) VH: EVQLVESGGGLIQPGGSLRLSCAASGFTVSSNAFSWVRQAPGKGLEWVSYIYSGGRTYYADSVKGRFTISRDNSKNTLYLQMNSLRAEDTAVYYCAAAGFGGGDYWGQGTLVTVSS VL: DIQMTQSPSSVSASVGDRVTITCRASQGISSQVAWYQQKPGKAPKLLIYPASNLWSGVPSRFSGSGSGTDFTLTISSLQPEDFATYYCQQANNFPLTFGGGTKVEIK | 0.1
26D5-295-F07-mAb: human IgG1f/kappa mAb; VH SEQ ID NO: 64, VL SEQ ID NO: 88 (antibody, V domains shown) VH: EVQLVESGGGLIQPGGSLRLSCAASGFTVSENAMSWVRQAPGKGLEWVSFIYSGGRTYYADSVKGRFTISRDNSKNTLYLQMNSLRAEDTAVYYCARGGFGGGDYWGQGTLVTVSS VL: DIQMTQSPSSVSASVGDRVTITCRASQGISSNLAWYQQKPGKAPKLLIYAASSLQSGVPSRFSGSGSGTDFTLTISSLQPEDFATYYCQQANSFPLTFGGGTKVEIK | 0.94
25D5-296-A07-mAb: human IgG1f/kappa mAb; VH SEQ ID NO: 60, VL SEQ ID NO: 93 (antibody, V domains shown) VH: EVQLVESGGGLIQPGGSLRLSCAASGFTVSSNAMSWVRQAPGKGLEWVSFIYPGGRTYYADSVKGRFTISRDNSKNTLYLQMNSLRAEDTAVYYCARAGFGGGDYWGQGTLVTVSS VL: DIQMTQSPSSVSASVGDRVTITCRASQGISSWLAWYQQKPGKAPKLLIYAASSLQSGVPSRFSGSGSGTDFTLTISSLQPEDFATYYCQQHNSFPLTFGGGTKVEIK | 1.6

Task item: Could you share which Kd value was measured for 26D5-295-E07-mAb: human IgG1f/kappa mAb; VH SEQ ID NO: 66, VL SEQ ID NO: 88 (antibody, V domains shown) VH: EVQLVESGGGLIQPGGSLRLSCAASGFQVSSNAMSWVRQAPGKGLEWVSFIYSGGRTYYADSVKGRFTISRDNSKNTLYLQMNSLRAEDTAVYYCARGGFGGGDYWGQGTLVTVSS VL: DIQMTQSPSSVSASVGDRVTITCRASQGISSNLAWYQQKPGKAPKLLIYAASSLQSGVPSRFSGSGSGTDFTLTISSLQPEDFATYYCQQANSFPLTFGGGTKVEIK ?
Reply: 1.2
